# study_target: human full-length MKNK1 (Homo sapiens, UniProt Q9BUB5, T385D)
# Sequence (Q9BUB5 1-424 isoform Q9BUB5-2 T344D): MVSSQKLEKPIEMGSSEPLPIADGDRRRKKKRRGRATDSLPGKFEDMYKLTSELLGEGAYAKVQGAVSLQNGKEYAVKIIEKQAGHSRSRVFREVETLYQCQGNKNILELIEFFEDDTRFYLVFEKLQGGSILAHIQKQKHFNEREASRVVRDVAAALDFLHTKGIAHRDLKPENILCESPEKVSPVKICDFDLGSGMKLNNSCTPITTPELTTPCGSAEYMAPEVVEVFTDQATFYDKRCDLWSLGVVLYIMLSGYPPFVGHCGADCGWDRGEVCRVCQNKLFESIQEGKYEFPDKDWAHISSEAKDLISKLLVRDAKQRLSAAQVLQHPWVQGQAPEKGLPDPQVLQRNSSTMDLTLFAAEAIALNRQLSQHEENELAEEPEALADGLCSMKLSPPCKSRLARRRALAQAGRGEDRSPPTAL
# measurement_notes: MKNK1 kinase high ATP assay (TR-FRET-based)
# test_conditions: ATP final conc. 2 mM, 15 min preincubation, 30 min reaction at 22° C.
measurement_kind: pIC50
Please report pIC50 as the negative decimal logarithm of the molar concentration, giving only the number.

{"compound": "N[C@H](COc1ccc2ncc(-c3cc4cnccc4o3)n2n1)c1ccccc1", "study_target": "human full-length MKNK1 (Homo sapiens, UniProt Q9BUB5, T385D)", "val": 7.28}

Name the recorded pIC50 of the compound listed here: `COc1nccc2oc(-c3cnc4ccc(OC[C@H](N)CO)nn34)cc12`
7.51

Identify the reported pIC50 for the following entry. `COc1nccc2oc(-c3cnc4ccc(OC[C@@H](N)[C@@H](C)OCc5ccccc5)nn34)cc12`
7.21

Note pIC50 for the compound shown: `COc1nccc2oc(-c3cnc4ccc(O[C@@H]5CC[C@H](N)C5)nn34)cc12`
7.37

Please list pIC50 recorded for the compound `COc1nccc2oc(-c3cnc4ccc(OC[C@@H](C)N)nn34)cc12`
7.57
